Source: patent US20250258178A1

Target: T1, human histidine-rich glycoprotein (HRG), purified from human plasma (human, UniProt P04196 19-525)
T1 construct: also called human purified HRG; human purified HRG protein
T1 sequence: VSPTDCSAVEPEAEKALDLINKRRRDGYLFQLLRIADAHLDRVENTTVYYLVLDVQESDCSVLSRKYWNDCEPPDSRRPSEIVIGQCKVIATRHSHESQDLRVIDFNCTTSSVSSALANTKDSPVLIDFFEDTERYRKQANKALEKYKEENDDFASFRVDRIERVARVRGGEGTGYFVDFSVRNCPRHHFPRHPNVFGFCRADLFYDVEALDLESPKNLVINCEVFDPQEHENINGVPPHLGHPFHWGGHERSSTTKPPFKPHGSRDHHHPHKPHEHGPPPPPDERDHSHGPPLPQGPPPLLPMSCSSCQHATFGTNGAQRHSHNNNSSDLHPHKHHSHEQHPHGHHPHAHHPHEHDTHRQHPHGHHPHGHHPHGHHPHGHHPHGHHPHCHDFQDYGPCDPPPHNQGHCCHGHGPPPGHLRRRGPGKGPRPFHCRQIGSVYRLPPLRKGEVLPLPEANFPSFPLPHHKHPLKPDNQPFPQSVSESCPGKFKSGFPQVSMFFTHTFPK
Experiment: sandwich ELISA, HRG captured by solid phase 81-2C
Measurement label: absorbance at 450 nm

Sample records with absorbance at 450 nm:
Binder: anti-HRG monoclonal antibody 65-3A (antibody, V domains shown, Mouse hybridoma monoclonal) VH: QVILKESGPGILQPSQTLSLTCSFSGFSLSTSGVGVSWIRQPSGKGLEWLAHIYWDDDKHYNPSLKSRLTISKDTSRNQVFLRITSVDTADTATYYCALGTVGGPWFPYWGQGTLVTVSA VL: DVQMNQSHKFMSTSVGDRVSITCKASQDVSTAVAWYQQKPGQSPKILIYWASIRHTGVPDRFTGSGSGTDYTLTISSVQAEDLTLYYCQQHYSTPWTFGGGTKLEIK
Val: < 1 OD
//
Binder: anti-HRG monoclonal antibody 69-1A (antibody, V domains shown, Mouse hybridoma monoclonal; also called clone No. 69-1A) VH: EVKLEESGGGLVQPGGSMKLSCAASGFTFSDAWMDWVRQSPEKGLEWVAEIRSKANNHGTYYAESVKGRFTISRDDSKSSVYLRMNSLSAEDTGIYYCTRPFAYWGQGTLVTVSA VL: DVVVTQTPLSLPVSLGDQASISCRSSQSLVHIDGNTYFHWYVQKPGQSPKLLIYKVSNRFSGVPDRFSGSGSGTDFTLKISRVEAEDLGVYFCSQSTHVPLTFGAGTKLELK
Val: < 1 OD

Dear colleague, I am looking for the recorded absorbance at 450 nm of the following binder: anti-HRG monoclonal antibody 50-6C-2A (antibody, V domains shown, Mouse hybridoma monoclonal) VH: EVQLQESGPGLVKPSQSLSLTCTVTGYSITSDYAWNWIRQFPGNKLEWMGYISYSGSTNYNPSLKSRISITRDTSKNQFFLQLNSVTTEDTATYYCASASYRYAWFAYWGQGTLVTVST VL: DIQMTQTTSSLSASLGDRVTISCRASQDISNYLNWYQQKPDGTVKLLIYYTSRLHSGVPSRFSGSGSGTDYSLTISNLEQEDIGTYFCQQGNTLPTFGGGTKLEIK
< 1 OD
